- System: RPMI-8226 leukemia
- experimentalProtocol: NCI-60 one-dose screen, 48 h (100 = growth as untreated, 0 = no growth, -100 = all killed)
- conditionLabel: 10 µM unless noted
Compounds without any hit were thinned out: in the full panel of roughly 83,000, 20% have a hit.
Criterion: growth strictly under 60%. Met: Y. Not met: N.

# input Dear colleague, could you confirm whether growth of Cc1nnc(-n2c(O)cc(=O)n(-c3ccccc3)c2=S)nc1/C=C/c1ccc(N(C)C)cc1 falls below 60%? Thanks.
# output Y

# input Dear colleague, could you confirm whether growth of Oc1c(Cl)cc(Cl)c2ccc(Cn3cc(-c4ccc(C(F)(F)F)cc4)nn3)nc12 falls below 60%? Thanks.
# output Y

# input Dear colleague, could you confirm whether growth of Cc1ccc(-c2csc(NC(=O)CN3CCN(c4cc5c(cc4F)c(=O)c(C(=O)O)cn5C4CC4)CC3)n2)cc1 falls below 60%? Thanks.
# output Y

# input Dear colleague, could you confirm whether growth of O=C(Nn1c2c(sc1=Nc1ccccc1)C(=O)c1ccccc1C2=O)c1cc2ccc1CCc1ccc(cc1)CC2 falls below 60%? Thanks.
# output N

# input Dear colleague, could you confirm whether growth of O=[N+]([O-])c1ccc(N/N=C(/C(=N/Nc2ccc([N+](=O)[O-])cc2)c2ccccc2)c2ccccc2)cc1 falls below 60%? Thanks.
# output N

# input Dear colleague, could you confirm whether growth of O=C(COc1ccc(-c2nc3ccccc3[nH]2)cc1)N=Nc1c(O)[nH]c2ccc(Cl)cc12 falls below 60%? Thanks.
# output Y

# input Dear colleague, could you confirm whether growth of Fc1cc(F)cc(C(c2c[nH]c3ccccc23)c2c[nH]c3ccccc23)c1 falls below 60%? Thanks.
# output N

# input Dear colleague, could you confirm whether growth of O=S(=O)(NCCCNc1nccc(-c2c(-c3ccc(F)c(O)c3)nc3occn23)n1)c1ccccc1 falls below 60%? Thanks.
# output N

# input Dear colleague, could you confirm whether growth of CCN(CC)CCCN1C(=O)c2c(c(C)c3c(oc4cc(O)ccc43)c2C)C1=O falls below 60%? Thanks.
# output Y

# input Dear colleague, could you confirm whether growth of CCOC(=O)c1[nH]c(=O)c2c(C)nc(-c3ccccc3)cc2c1O falls below 60%? Thanks.
# output N

# input Dear colleague, could you confirm whether growth of Cn1ccc2c3c(ccc21)CC3=O falls below 60%? Thanks.
# output N

# input Dear colleague, could you confirm whether growth of OCCCC1CCN(C(Cc2ccccc2)c2ccccc2)CC1 (stereo unspecified) falls below 60%? Thanks.
# output N

# input Dear colleague, could you confirm whether growth of CCOC(=O)C1=C(NC)OCC1=O falls below 60%? Thanks.
# output N

# input Dear colleague, could you confirm whether growth of Cc1ccc(S(=O)(=O)N2CCCC2CO)cc1 (stereo unspecified) falls below 60%? Thanks.
# output N

# input Dear colleague, could you confirm whether growth of O=C(O)CNC1=C(Cl)C(=O)c2ccccc2C1=O falls below 60%? Thanks.
# output N

# input Dear colleague, could you confirm whether growth of COc1ccc(C(c2cc(OC)c(OC)c(OC)c2)N2CCN(c3ccccc3)CC2)cc1 (stereo unspecified) falls below 60%? Thanks.
# output N

# input Dear colleague, could you confirm whether growth of CC(=O)OCc1nc(C#N)c(N(C)C)o1 falls below 60%? Thanks.
# output N

# input Dear colleague, could you confirm whether growth of Cc1c(-n2nnc(-c3nc4ccccc4s3)c2N)c(=O)n(-c2ccccc2)n1C falls below 60%? Thanks.
# output N

# input Dear colleague, could you confirm whether growth of COc1ccc2[nH]cc(-c3nc(-c4c[nH]c5ccncc45)cs3)c2c1 falls below 60%? Thanks.
# output Y
